Assay: RP, Waters ACQUITY UPLC BEH C18, 50 × 2.1 mm, 1.7 µm, 40 °C, 0.6 mL/min, estimated dead time 0.18 min; A: water + 0.1% formic acid, pH 3; B: acetonitrile + 0.1% formic acid, pH 3; gradient (min/%B) 0/5 7/100 8/100
Conditions: stereoisomer not certain
result_type: LC retention time (min)
Just the number please, in min, no unit attached.

*Q* Recorded LC retention time for C[C@@H]1CC2(NCCS2)C(=O)C(O[C@@H]2CC3CCC4C(CC[C@]5(C)[C@@H](C6=CC(=O)OC6)CC[C@]45O)[C@@]3(C=O)C[C@H]2O)O1 (some centres not stated) , please?
*A* 1.89

*Q* Bench note: what LC retention time did "CC1=C(O)C(=O)C=C2C1=CC=C1[C@@]2(C)CC[C@@]2(C)[C@@H]3C[C@](C)(C(=O)O)CC[C@]3(C)CC[C@]12C" show?
*A* 5.33

*Q* Looking for the measured LC retention time of COc1c(O)ccc2c1C(OC)N(C)c1c-2ccc2cc3c(cc12)OCO3 (configuration not stated) , can you help?
*A* 2.48

*Q* So what's the measured LC retention time for this one? C/C(=C\CC/C=C(\C)CC/C=C(\C)CCC(O)C(C)(C)O)CC/C=C(\C)CCC(O)C(C)(C)O (configuration not stated)
*A* 5.34

*Q* Find the recorded LC retention time belonging to C=C(C(=O)C(O)C(C)C1C(OC(C)=O)CC2(C)C3CCC4C(C)C(=O)C=CC45CC35CCC12C)C(C)CO (configuration not stated) and report it.
*A* 4.1

*Q* Reported LC retention time for "COc1ccc(-c2cc(=O)c3c(O)cc(O)cc3o2)cc1-c1c(O)cc(O)c2c(=O)cc(-c3ccc(O)cc3)oc12" : what is it?
*A* 3.1

*Q* Need LC retention time of C=C1C(=O)C23C(O)CC4C(C)(C)CCCC4(COC(C)=O)C2C(O)CC1C3O (configuration not stated) , thanks.
*A* 2.42
